Source listed as patent US10752587B2.

target: glutathione-S-transferase (GST) tagged LXRalpha LBD (ligand binding domain) (Homo sapiens); construct: purchased Invitrogen pv4655; test: LanthaScreen TR-FRET Liver X Receptor Coactivator Assay, co-activator recruitment to LXRalpha LBD; assay type: biochemical; conditions: efficacy at max dose, in relation to reference dual agonist T0901317; read-out: LXR alpha Activity @ max dose (%)
Sequence (Q13133 209-447 limits assumed): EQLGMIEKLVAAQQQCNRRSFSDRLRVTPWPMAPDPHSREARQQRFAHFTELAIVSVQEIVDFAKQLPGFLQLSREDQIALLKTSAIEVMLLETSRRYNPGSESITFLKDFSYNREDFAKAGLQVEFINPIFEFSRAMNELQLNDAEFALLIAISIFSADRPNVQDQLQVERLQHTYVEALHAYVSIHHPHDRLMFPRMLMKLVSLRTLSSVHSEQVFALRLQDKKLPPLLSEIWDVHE
quantity: Emax (%)
Answers are plain numbers, in %.

compound=CNC(=O)c1ccc(N2CCC(CC3CCN(C(=O)[C@](O)(c4cccc(OC)c4)C(F)(F)F)CC3)CC2)nc1Cl quantitative_result=14
compound=C[C@H]1CCCN1C(=O)c1ccc(N2CCC(CC3CCN(C(=O)[C@](O)(c4ccccc4)C(F)(F)F)CC3)CC2)cc1Cl quantitative_result=39
compound="Cc1cc(F)cc(C(O)(C(=O)N2CCC(CC3CCN(c4ccc(C(=O)N(C)C)c(Cl)c4)CC3)CC2)C(F)(F)F)c1 (centres unmarked)" quantitative_result=25
compound=Cc1cccc([C@@](O)(C(=O)N2CCC(CC3CCN(c4ccc(C(=O)N(C)C)c(Cl)c4)CC3)CC2)C(F)(F)F)c1 quantitative_result=10
compound=Cc1cc(N2CCC(CC3(C)CCN(C(=O)[C@](O)(c4cc(F)cc(Cl)c4)C(F)(F)F)CC3)CC2)ccc1C(=O)N(C)C quantitative_result=31

For every record below, what is its Emax?
1. CN(C)C(=O)c1ccc(N2CCC(CC3CCN(C(=O)C4(c5ccccc5F)CCCC4)CC3)CC2)nc1Cl
2. COc1cccc([C@@](N)(C(=O)N2CCC(CC3CCN(c4ccc(C(=O)N(C)C)c(Cl)n4)CC3)CC2)C(F)(F)F)c1
3. CN(C)C(=O)c1ccc(N2CCC(CC3CCN(C(=O)[C@](O)(c4cccc(O)c4)C(F)(F)F)CC3)CC2)cc1Cl
4. CN(C)C(=O)c1ccc(N2CCC(CC3CCN(C(=O)C(N)(c4ccccc4)C(F)(F)C(F)(F)F)CC3)CC2)cc1Cl (centres unmarked)

result:
1. 29
2. 0
3. 14
4. 21

Please give Emax for each item listed below.
1. CN(C)C(=O)c1ccc(N2CCC(CC3CCN(C(=O)C(N)(c4ccccc4)C(F)(F)F)CC3)CC2)nc1Cl (centres unmarked)
2. CN(C)C(=O)c1ccc(N2CCC(CC3(C)CCN(C(=O)[C@](O)(c4cccc(F)c4)C(F)(F)F)CC3)CC2)cc1Cl

result:
[47, 27]

Go through the items and report each one's Emax.
1. COc1cccc([C@@](O)(C(=O)N2CCC(CC3CCN(c4ccc(C(=O)N(C)C)c(C)n4)CC3)CC2)C(F)(F)F)c1
2. COc1cccc([C@@](O)(C(=O)N2CCC(CC3CN(c4ccc(C(=O)N(C)C)c(C)n4)C3)CC2)C(F)(F)F)c1
3. CNC(=O)c1ccc(N2CCC(CC3CCN(C(=O)[C@](O)(c4cc(Cl)cc(OC)c4)C(F)(F)F)CC3)CC2)cc1Cl
4. CN(C)C(=O)c1ccc(N2CCC(CC3CCN(C(=O)[C@](O)(c4cccc(OC5CC5)c4)C(F)(F)F)CC3)CC2)nc1Cl
5. CN(C)C(=O)c1ccc(N2CCC(CCC3CCN(C(=O)[C@](O)(c4ccccc4)C(F)(F)F)CC3)CC2)cc1Cl
6. CC(C)N(C)C(=O)c1ccc(N2CCC(CC3CCN(C(=O)[C@](O)(c4ccccc4)C(F)(F)F)CC3)CC2)cc1Cl
7. COc1cccc([C@@](O)(C(=O)N2CCC(CC3CN(c4ccc(C(=O)N(C)C)c(C5CC5)n4)C3)CC2)C(F)(F)F)c1

result:
[8, 4, 0, 0, 12, 30, 0]

For each of the compounds below, note its Emax.
1. CN(C)C(=O)c1ccc(N2CCC(CC3CCN(C(=O)C(O)(Cc4ccccc4)C(F)(F)F)CC3)CC2)cc1Cl (centres unmarked)
2. CN(C)C(=O)c1ccc(N2CCC(CC3CCN(C(=O)C(O)(c4cccs4)C(F)(F)F)CC3)CC2)cc1Cl (centres unmarked)

result:
[43, 33]

====

Assign pEC50 to each entry below.
Biological target: glutathione-S-transferase (GST) tagged LXRbeta LBD (ligand binding domain) (Homo sapiens)
Construct: purchased Invitrogen pv4658.pps
Sequence (P55055 222-460 limits assumed): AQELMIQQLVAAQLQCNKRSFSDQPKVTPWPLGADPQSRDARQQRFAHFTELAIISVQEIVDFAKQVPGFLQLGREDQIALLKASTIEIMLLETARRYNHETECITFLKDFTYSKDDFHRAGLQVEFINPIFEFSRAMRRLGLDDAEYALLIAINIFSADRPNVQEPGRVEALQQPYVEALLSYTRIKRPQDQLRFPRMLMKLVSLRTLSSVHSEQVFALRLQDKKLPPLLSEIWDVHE
Assay: LanthaScreen TR-FRET Liver X Receptor Coactivator Assay, co-activator recruitment to LXRbeta LBD
Assay type: biochemical
Conditions: potency (Inflection Point, IP), co-activator recruitment to LXRbeta LBD, in relation to T0901317; read-out: LXR beta IP
Give bare numbers, as −log10 of the molar value.

compound="CN(C)C(=O)c1ccc(N2CCC(CC3CN(C(=O)C(O)(c4cccc(C(F)(F)F)c4)C(F)(F)F)C3)CC2)cc1Cl (stereo not drawn)" quantity=pEC50 quantitative_result=7.30
compound="O=C(c1ccc(N2CCC(CC3CCN(C(=O)[C@](O)(c4ccccc4)C(F)(F)F)CC3)CC2)cc1Cl)N1CCC(c2ccncc2)C1 (stereo partly drawn)" quantity=pEC50 quantitative_result=6.57
compound="CN(C)C(=O)c1ccc(N2CCC(CC3CCN(C(=O)[C@](O)(c4cc(Cl)cc(Cl)c4)C(F)(F)F)CC3)CC2)cc1 [Example 2-133]" quantity=pEC50 quantitative_result=7.44
compound=CCOc1cccc([C@@](O)(C(=O)N2CCC(CC3CN(c4ccc(C(=O)N(C)C)c(C5CC5)n4)C3)CC2)C(F)(F)F)c1 quantity=pEC50 quantitative_result=5.89
compound="COc1cccc([C@@](O)(C(=O)N2CCC(CC3CCN(c4ccc(C(=O)N(C)C)c(Cl)c4)CC3)CC2)C(F)(F)F)n1 (stereo in doubt)" quantity=pEC50 quantitative_result=8.60

# return pEC50 for each item in the list
1. CNC(=O)c1ccc(N2CCC(CC3CCN(C(=O)C(O)(c4cccc(Cl)c4)C(F)(F)F)CC3)CC2)cc1Cl (stereo not drawn) [Example 7-129]
2. COc1cccc([C@@](O)(C(=O)N2CCC(OC3CCN(c4ccc(C(=O)N(C)C)c(Cl)c4)CC3)CC2)C(F)(F)F)c1
3. CN(C)C(=O)c1ccc(N2CCC(CC3CCN(C(=O)[C@](O)(c4cccc(OC(F)F)c4)C(F)(F)F)CC3)CC2)nc1Cl
4. CN(C)C(=O)c1ccc(N2[C@@H]3CC[C@H]2CN(CC2CCN(C(=O)[C@](O)(c4ccccc4)C(F)(F)F)CC2)C3)cc1Cl
5. COc1cccc([C@@](O)(C(=O)N2CCC(CC3CCN(c4ccc(C(=O)N(C)C)c(C)n4)CC3)CC2)C(F)(F)F)c1 [Example 7-8]

result:
1: 7.80; 2: 7.60; 3: 8.30; 4: 5.59; 5: 7.92

Each compound below has a reported value. Please supply its pEC50.
1. CN(C)C(=O)c1ccc(N2CCC(CC3CCN(C(=O)C(O)(c4cccc(C#N)c4)C(F)(F)F)CC3)CC2)nc1Cl (stereo not drawn)
2. CN(C)C(=O)c1ccc(N2CCC(CC3CCN(C(=O)[C@@](O)(c4cccc(C(F)(F)F)c4)C(F)(F)F)CC3)CC2)cc1Cl

result:
[8.22, 6.14]

====

Molecular target: glutathione-S-transferase (GST) tagged LXRbeta LBD (ligand binding domain) (Homo sapiens, UniProt P55055)
Construct: purchased Invitrogen pv4658.pps
Sequence (P55055 222-460 limits assumed): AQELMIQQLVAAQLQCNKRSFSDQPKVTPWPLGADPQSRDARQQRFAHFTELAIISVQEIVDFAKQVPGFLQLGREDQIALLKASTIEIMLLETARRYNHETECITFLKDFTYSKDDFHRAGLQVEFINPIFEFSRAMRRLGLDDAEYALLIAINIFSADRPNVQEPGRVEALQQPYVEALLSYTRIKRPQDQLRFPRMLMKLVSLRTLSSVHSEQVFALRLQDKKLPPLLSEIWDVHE
Assay: LanthaScreen TR-FRET Liver X Receptor Coactivator Assay, co-activator recruitment to LXRbeta LBD
Assay type: biochemical
Details: efficacy at max dose, in relation to reference dual agonist T0901317; read-out: LXR beta Activity @ max dose (%)
Text: […]
quantity: Emax (%)
Answers are plain numbers, in %.

compound="CN(C)C(=O)c1ccc(N2CCC(CC3CCN(C(=O)[C@](O)(c4cccc(OC(F)F)c4)C(F)(F)F)CC3)CC2)cc1 [Example 2-134]" quantity=Emax result_unit=% quantitative_result=67
compound="CN(C)C(=O)c1ccc(N2CCCN(CC3CCN(C(=O)C(O)(c4cccc(Cl)c4)C(F)(F)F)CC3)CC2)cc1Cl (stereo not shown) [Example 6-2]" quantity=Emax result_unit=% quantitative_result=98
compound="NC(=O)c1ccc(N2CCC(CC3CCN(C(=O)[C@](O)(c4cccc(Cl)c4)C(F)(F)F)CC3)CC2)cc1Cl [Example 12-5]" quantity=Emax result_unit=% quantitative_result=76
compound="COc1cccc([C@@](O)(C(=O)N2CCC(OC3CCN(c4ccc(C(=O)N(C)C)c(Cl)n4)CC3)CC2)C(F)(F)F)c1 [Example 7-153]" quantity=Emax result_unit=% quantitative_result=100
compound="CN(C)CCN(C)C(=O)c1ccc(N2CCC(CC3CCN(C(=O)[C@](O)(c4ccccc4)C(F)(F)F)CC3)CC2)cc1Cl [Example 4-13]" quantity=Emax result_unit=% quantitative_result=62

Here are 6 compounds. What values of Emax were reported for them?
1. CNC(=O)c1ccc(N2CCC(CC3CCN(C(=O)[C@](O)(c4cccc(F)c4)C(F)(F)F)CC3)CC2)nc1Cl [Example 7-152]
2. CN(C)C(=O)c1ccc(N2CCC(CC3CCN(C(=O)[C@](O)(c4cccc(Cl)c4)C(F)(F)F)CC3)CC2)cc1 [Example 2-131]
3. CN(C)C(=O)c1ccc(N2CCC(CC3(C)CCN(C(=O)[C@](O)(c4cc(F)cc(Cl)c4)C(F)(F)F)CC3)CC2)nc1Cl [Example 7-46]
4. CNC(=O)c1ccc(N2CCC(CC3CCN(C(=O)[C@](O)(c4cccc(OC)c4)C(F)(F)F)CC3)CC2)nc1Cl [Example 7-135]
5. COc1cccc([C@@](O)(C(=O)N2CCC(SC3CCN(c4ccc(C(=O)N(C)C)c(Cl)n4)CC3)CC2)C(F)(F)F)c1 [Example 9-2]
6. CN(C)C(=O)c1ccc(N2CCC(CC3CCN(C(=O)[C@](O)(c4cccc(CC#N)c4)C(F)(F)F)CC3)CC2)cc1Cl [Example 2-120]

result:
[127, 59, 109, 81, 70, 46]
